The reported numbers originate from PubChem BioAssay (NCI).

# Test system: TK-10 renal
# Experimental Protocol: NCI-60 one-dose screen, 48 h
# Conditions Used: 10 µM unless noted
Compounds without any hit were thinned out: in the full panel of roughly 83,000, 20% have a hit. The source made the active and inactive calls. How the source made its calls: active means growth percent below 10; inactive means the rest.
Outcome codes: active, inactive

O=C1COCCN1c1ccc(NCc2cn(C(=O)c3ccc(Cl)cc3)c3ccccc23)cc1 = active
N#C/C(=C\c1cccc2cnccc12)n1nnc2cccc(F)c21 = inactive
COc1cc(C(=O)/C=C/c2sc(Cl)nc2Cl)cc(OC)c1OC = inactive
O=S(=O)(NCCCNc1cc(-c2c(-c3cccc(O)c3)nc3sccn23)ccn1)c1cccc2ccccc12 = inactive
COc1ccc(C2CC(c3ccc(Nc4nc(Nc5ccc(F)cc5)nc(Nc5ccc(Cl)cc5)n4)cc3)=NN2C(C)=O)cc1 (stereo not given) = inactive
O=c1ccc(N=Nc2ccc([N+](=O)[O-])cc2)ccc1O = inactive
CCOC(=O)C1=C(N)Oc2c(sc3c(CC)cccc23)C1c1ccc(F)cc1 (stereo not given) = inactive
C[C@]12CC[C@@H]3c4cc(OC(F)F)c(OS(N)(=O)=O)cc4CC[C@H]3[C@@H]1CC[C@@H]2O = inactive
Cc1cc(=O)oc2cc(OC(=O)N3CCN(C)CC3)ccc12 = inactive
COc1ccc([C@H]2c3cc(OC)c(OC)cc3C=C(C=O)C2CO)cc1OC (stereo not given in full) = inactive
NC1CCN(c2nc(Nc3cccc(C(F)(F)F)c3)c3c(=O)[nH]ccc3n2)CC1 = active
CCOC(=O)C1=C(N)Oc2c(sc3c(C)cccc23)C1c1ccc(Cl)cc1 (stereo not given) = inactive
O=C(O)CCC/C=C\C[C@H]1C=CC(=O)/C1=C/C[C@@H](O)CCc1cccc(C(F)(F)F)c1 = inactive
CCOC(=O)c1sc2ncc(-c3ccc(OC)cc3)n2c1C = inactive
Cc1ccc(-c2nc(N3CCN(C(=O)c4ccc(OC(F)(F)F)cc4)CC3)c3ccccc3n2)cc1 = inactive

----------
# Tested on: OVCAR-5 ovarian
# Experimental Protocol: NCI-60 one-dose screen, 48 h (100 = growth as untreated, 0 = no growth, -100 = all killed)
# Conditions Used: 10 µM unless noted
Compounds without any hit were thinned out: in the full panel of roughly 83,000, 20% have a hit.
Experimental Endpoint: growth (%)

O=C(N/N=C/[C@H](O)[C@H](O)[C@H](O)CO)c1ccc(NC(=O)c2cccnc2)cc1 = 102
C/C(=N/NC(N)=S)c1sc(Nc2cccc(Cl)c2)nc1C = 86.8
COc1c(N2CC3CCCN(C(C)=O)C3C2)c(F)cc2c(=O)c(C(=O)N[C@H]3C(O)[C@@H](O)C(CO)O[C@H]3O)cn(C3CC3)c12 (stereo partly drawn) = 104
O=C(Oc1cccc2ccccc12)Oc1cccc2ccccc12 = 103
O=c1c2cc(F)ccc2sc2c(NCCN3CCOCC3)nc3ccccc3c12 = 89.5
CN(C(=O)NCc1cccc(F)c1Cl)[C@H](COC(=O)Nc1cc2ccccc2cn1)CC(O)CO (stereo partly drawn) = 95.8
Nc1nc(Cl)cc(=O)n1Cc1ccccc1 = 91
CC[C@H](C)C(=O)O[C@H]1CCC=C2C=C[C@H](C)[C@H](CC[C@@H]3CC=CC(=O)O3)[C@H]21 = 112
Cn1cc(-c2ccc3cc(-c4ccc(CC(=O)Nc5cc(C(C)(C)C)nn5C)cc4)cnc3c2)cn1 = 43.8
COc1cc(CCCO)c(OC)c(OC)c1OC = 103
CCN1C(=O)N(CC)C2Nn3c(s/c(=C4\C(=O)Nc5ccccc54)c3=O)=NC21 (stereo not drawn) = 66.4
c1ccc2cc(C[n+]3ccn(CCCCCCn4cc[n+](Cc5ccc6ccccc6c5)c4)c3)ccc2c1 = 60.4
COc1cccc(Cc2cc(-c3ccccc3)nn(CC(=O)c3ccccc3)c2=O)c1 = 96.4
O=C(/C=C/c1sc(Cl)nc1Cl)c1ccc(Br)cc1 = 95.3
O=C(O)c1cn(C2CC2)c2cc(N3CCN(C(=O)Nc4nc(-c5ccccc5)cs4)CC3)c(F)cc2c1=O = 50.3
COc1ccc(CNC(=O)[C@H](O)[C@@H](N)Cc2ccccc2)cc1 = 98
CCOC(=O)C1=C(N)Oc2c(sc3c(C)cccc23)C1c1ccc(OC)cc1 (stereo not drawn) = 75.9
COc1cc(Nc2nc(NCCN)nc3cc[nH]c(=O)c23)cc(OC)c1 = 67.9
